- Tested system: Nuclear receptor subfamily 0 group B member 1 (Homo sapiens) (UniProt P51843)
- Sequence (P51843 207-470 limits assumed): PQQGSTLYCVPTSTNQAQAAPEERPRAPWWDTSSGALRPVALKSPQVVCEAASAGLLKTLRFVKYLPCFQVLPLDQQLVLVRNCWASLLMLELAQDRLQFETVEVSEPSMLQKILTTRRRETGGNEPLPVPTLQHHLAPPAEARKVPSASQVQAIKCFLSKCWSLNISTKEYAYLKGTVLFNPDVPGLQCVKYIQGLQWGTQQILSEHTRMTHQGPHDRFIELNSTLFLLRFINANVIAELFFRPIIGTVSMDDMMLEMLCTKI
- Run description: DAX1 (NR0B1) inhibitors, primary screen, cell-based, HEK293, Gal4-DAX1, luciferase luminescence (AID 504766);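 also: 0% = DAX1-transfected cells with DMSO and 100% = empty-vector control cells with DMSO; inhibition shows as a rise in luminescence from relieved DAX1 repression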
- Protocol conditions: HEK293 Gal4-DAX1 luciferase reporter, at 6.75 µM, active compounds read high
The campaign covered roughly 340,000 compounds. About 3,400 (1%) were called active. The sample as a whole holds a higher share of actives than the screen did.
Quantity name: inhibition (%)
Report the value in % with no unit label.

Illustrative cases are given below, each with its answer.
- Compound: "Cc1cccc(OCC(=O)Nc2ccc(C(=O)O)cc2NC(=O)COc2cccc(C)c2)c1"
  Quantity name: "inhibition"
  Reading unit: "%"
  Observed value: 0.91
- Compound: "Brc1ccc(C2CC(c3ccccc3)=Nc3ccccc3N2)cc1 (centres undefined)"
  Quantity name: "inhibition"
  Reading unit: "%"
  Observed value: 4.28
- Compound: "Nc1nnc(SCC(=O)Nc2ccc3nc(SCC(=O)Nc4ccccc4)sc3c2)s1"
  Quantity name: "inhibition"
  Reading unit: "%"
  Observed value: -3.13
- Compound: "O=C(NN=Cc1ccc([N+](=O)[O-])cc1)C1CC1"
  Quantity name: "inhibition"
  Reading unit: "%"
  Observed value: 0.79
- Compound: "O=C(NNC(=O)c1ccc2ccccc2c1)c1ccc(Cl)cc1"
  Quantity name: "inhibition"
  Reading unit: "%"
  Observed value: -1.29

Notebook: CCn1c(SCC(=O)Nc2ccc3c(c2)OCCO3)nnc1C(C)C , inhibition read as 2.27

inhibition recorded for this compound, Cc1ccc(/C(N)=N/OC(=O)COc2ccc(Cl)c(C)c2)cc1 , is -0.49

Entry C(=N\Nc1ccc2ccccc2n1)/c1ccc2c(c1)OCO2 , inhibition reported as -2.05

O=C(Cc1c(O)c2ccccc2[nH]c1=O)NCc1ccccc1 yielded inhibition of 1.32

Sure, the documented inhibition for CCCCCCN1C[C@@H](O)[C@H](n2cc(COC(=O)c3ccccc3)nn2)C[C@@H]1c1ccc(Cl)cc1 is 0.09

Given item O=C(N/N=C/c1ccc([N+](=O)[O-])cc1)c1c[nH]c2ccccc12 , the value recorded as its inhibition is 5.39

Consider N#CCCN(C(=S)Nc1ccc(Cl)c(Cl)c1)C1CCCCC1 . Its measured inhibition is -0.53

The recorded inhibition for CC1(c2cccc(Br)c2)NC(=O)N(CC(=O)NCCC2=CCCCC2)C1=O (centres undefined) is 1.45

Value of inhibition reported for the compound C[C@H]1Cn2cnc(C(=O)N[C@@H](Cc3c[nH]c4ccccc34)C(=O)OC(C)(C)C)c2C(=O)N1 is 0.77

Consider COc1ccccc1C(=O)NC(=S)Nc1ccc(N2CCOCC2)cc1 . Its measured inhibition is 0.43

The reported value for CCCCCCNC(=O)O[C@]12C[C@@H](C(=O)OC)[C@@H](C(=O)OC)C[C@@]1(O)CN(S(=O)(=O)c1ccc(C)cc1)C2 in terms of inhibition is 0.26

----------
- Tested system: Nuclear receptor subfamily 0 group B member 1 (Homo sapiens) (UniProt P51843)
- Run description: DAX1 (NR0B1) inhibitors, primary screen, cell-based, HEK293, Gal4-DAX1, luciferase luminescence (AID 504766);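 also: 0% = DAX1-transfected cells with DMSO and 100% = empty-vector control cells with DMSO; inhibition shows as a rise in luminescence from relieved DAX1 repression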
- Protocol conditions: HEK293 Gal4-DAX1 luciferase reporter, at 6.75 µM, active compounds read high
Hit rate of the full screen: of about 340,000 compounds, about 3,400 (1%) were called active. The sample holds actives, similar compounds and a random draw of the others, so the mix is not that of the screen.
Entries and their inhibition values follow.
Supply the numeric figure in %, leaving out any unit text.

Some solved entries appear below for comparison.
- Compound: "Cc1ccc(/C=N/NC(=S)NC2CCCCC2)o1"
  Reading unit: "%"
  Observed value: 4.44
- Compound: "O=C1OCCC1=COCCCCOC=C1CCOC1=O"
  Reading unit: "%"
  Observed value: -0.66
- Compound: "C[C@@H]1CCCCO[C@H](CN(C)Cc2ccccc2)[C@@H](C)CN([C@H](C)CO)C(=O)c2cc(NS(=O)(=O)c3ccc(Cl)cc3)ccc2O1"
  Reading unit: "%"
  Observed value: -0.88
- Compound: "CC(Sc1ccc(S(=O)(=O)N2CCN(C)CC2)cn1)C(=O)NC1CCCC(C)C1C (stereo unspecified)"
  Reading unit: "%"
  Observed value: 0.86

For COc1ccc(OC)c(C(=O)NC2CCCc3c2cnn3-c2cc(C)cc(C)c2)c1 (stereo unspecified) the compound record lists inhibition as -1.87

Entry under test: C[C@H]1CN([C@@H](C)CO)S(=O)(=O)c2ccc(Br)cc2O[C@H]1CN(C)C(=O)c1cnccn1 . Its inhibition was -0.34

Reported inhibition ( Cc1cccc(C)c1NC(=O)CNC(=O)c1ccc(N2CCOCC2)c([N+](=O)[O-])c1 ) = 0.52

The measured inhibition associated with COc1ccc(-c2nnc(SC(C)C(=O)NC3CC3)o2)cc1 (stereo unspecified) reads 1.85

Data point: COc1ccc(C(=O)Nc2cccc(NC(=O)c3ccc(OC)cc3OC)n2)c(OC)c1 ; inhibition = -0.74

Summary for this compound, Cc1ccc(CN(C)C[C@@H]2OCc3cnnn3CCCC(=O)N([C@@H](C)CO)C[C@H]2C)cc1 : inhibition is 0.34

inhibition measured on O=C(CNC(=O)c1cc(=O)[nH]c2ccccc12)Nc1ccc(F)c(F)c1 = 7.53

----------
- Tested system: Nuclear receptor subfamily 0 group B member 1 (Homo sapiens) (UniProt P51843)
- Run description: DAX1 (NR0B1) inhibitors, primary screen, cell-based, HEK293, Gal4-DAX1, luciferase luminescence (AID 504766);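 also: 0% = DAX1-transfected cells with DMSO and 100% = empty-vector control cells with DMSO; inhibition shows as a rise in luminescence from relieved DAX1 repression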
- Protocol conditions: HEK293 Gal4-DAX1 luciferase reporter, at 6.75 µM
Among all 340,000 compounds or so, about 3,400 (1%) were called active.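 The calls were made as follows: active = inhibition above the mean over all tested compounds plus 3 SD (cut at about 4.2% in these data); inactive = the rest.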 Shown is part of a subset that was picked to be rich in actives.
Respond only with the outcome that fits, drawn from yes (1) (active), no (0) (inactive)

For orientation, consider the following solved cases.
- Compound: "CC(C)NC(=O)Nc1ccc2c(c1)C(=O)N([C@H](C)CO)C[C@H](C)[C@@H](CN(C)Cc1ccc(C(F)(F)F)cc1)OCCCC[C@@H](C)O2"
  Label: "no (0)"
- Compound: "Cc1nc(-c2ccccc2)sc1C(=O)/C=C/c1ccccc1"
  Label: "yes (1)"
- Compound: "N/C(=N\\OS(=O)(=O)c1cccc([N+](=O)[O-])c1)c1ccncc1"
  Label: "yes (1)"
- Compound: "COc1cc(C)c(CN2CCN(C(=O)CCC(=O)c3ccc(C)s3)CC2)cc1OC"
  Label: "no (0)"
- Compound: "CC(=O)NN1C(=O)c2ccccc2NC1c1ccccc1 (configuration not stated)"
  Label: "no (0)"
- Compound: "CC(C)=NN1C(=O)c2ccccc2NC1(C)C"
  Label: "yes (1)"
- Compound: "N#Cc1ccccc1NC(=O)c1ccc2c(c1)OCO2"
  Label: "no (0)"
- Compound: "O=C(c1ccncc1)N1CCN(S(=O)(=O)c2cccc([N+](=O)[O-])c2)CC1"
  Label: "no (0)"
- Compound: "CCOc1cc(/C=N/NC(=O)c2ccncc2)cc(Br)c1O"
  Label: "no (0)"
- Compound: "COc1ccc(C(C(=O)NC(C)(C)C)N(C(=O)Cn2nnc3ccccc32)c2ccc(C(C)=O)cc2)cc1O (configuration not stated)"
  Label: "yes (1)"

Prompt: Record request — test call for CCCCCC(=O)N1C[C@H](O)[C@@H](n2cc(COC(=O)c3ccccc3)nn2)C[C@@H]1c1ccc(C)cc1
Response: no (0)

Prompt: State the result this test recorded for COc1ccc(-c2ccc(CN3C(CC(C)C)C(=O)N(Cc4cn(CC5CCCCC5)nn4)CCS3(=O)=O)cc2)cn1 (configuration not stated) .
Response: no (0)

----------
- Tested system: Nuclear receptor subfamily 0 group B member 1 (Homo sapiens) (UniProt P51843)
- Run description: DAX1 (NR0B1) inhibitors, primary screen, cell-based, HEK293, Gal4-DAX1, luciferase luminescence (AID 504766);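 also: 0% = DAX1-transfected cells with DMSO and 100% = empty-vector control cells with DMSO; inhibition shows as a rise in luminescence from relieved DAX1 repression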
- Protocol conditions: HEK293 Gal4-DAX1 luciferase reporter, at 6.75 µM
The campaign covered roughly 340,000 compounds. About 3,400 (1%) were called active.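 The calls were made as follows: active = inhibition above the mean over all tested compounds plus 3 SD (cut at about 4.2% in these data); inactive = the rest.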 For the sample, actives were picked, then their nearest neighbours and some compounds at random.
Field 'call' accepts active, inactive

Solved cases below.
- Compound: "CC(Sc1nnnn1C)C(=O)NC(=O)NC1CCCCC1 (stereo not given)"
  Label: "active"
- Compound: "CC(OC(=O)c1cccc(S(=O)(=O)N2CCOCC2)c1)C(=O)NCC1CCCCC1 (stereo not given)"
  Label: "inactive"

Prompt: Each compound tested received a call. Report the one for Cc1ccc(S(=O)(=O)/N=C2\C=C(NS(=O)(=O)c3ccc(C)cc3)C(=O)c3ccccc32)cc1 .
Response: inactive

Prompt: Entry CCCn1c(N)c(C(=O)CSc2nnc(Cc3cccs3)n2C2CC2)c(=O)[nH]c1=O : call = ?
Response: inactive

Prompt: // return assay outcome for C/C(COc1ccccc1)=N\NC(=O)c1nnn(-c2nonc2N)c1-c1ccc(C)cc1
Response: inactive
